Test system: M14
Experiment: NCI tumour cell line growth inhibition, 48 h
Active and inactive are the calls of the source. Rule as the data show it: active = GI50 up to about 1.1 µM and inactive = higher. Starred links: 1 amine or outer side, 2 acyl side, 3 side chain; linkers in the order of their positions; H or OH if unused. Non-standard residues stand in square brackets, D forms with d. Residues, ends and D or L forms follow the SMILES beside them. ξ: configuration not given here. X24 = O=C(C(CC(O)CO)O[*:1])[*:2]; Ile(3ξ) = CCC(C)[C@H](N)C(=O)O; NMeV = CN[C@H](C(=O)O)C(C)C; NMeA = CN[C@@H](C)C(=O)O; βAla = NCCC(=O)O
MEASUREMENT_LABEL: GI50

Guide cases for GI50, answers given:
# COMPOUND, GI50
measured = [
    ("C/C=C1\\CC(C(=O)OCC)CCCCCCC1=O (centres undefined)", "> 100 µM (inactive)"),
    ("C#CCn1c(I)cc2c(c1=O)COC(=O)[C@]2(O)CC", "> 100 µM (inactive)"),
    ("C/C(=N/O)c1cccc(Nc2nc3ccc(Cl)cc3c3[nH]c4ccccc4c23)c1", "1.82 µM (inactive)"),
    ("O=C1Nc2ccc(Br)cc2/C1=N/Nc1ccc([N+](=O)[O-])cc1", "23.6 µM (inactive)"),
    ("CC(=O)Nc1ccc(Nc2nc(=O)[nH]c(=O)[nH]2)cc1", "> 100 µM (inactive)"),
    ("CSc1cc(Cl)c(C)cc1S(=O)(=O)NC(=O)NNc1cnc2ccccc2n1", "> 100 µM (inactive)"),
    ("O=C1c2ccccc2C(=O)N1CCSCC(CO)SCCN1C(=O)c2ccccc2C1=O (centres undefined)", "96.8 µM (inactive)"),
    ("CCC(C)[C@@H]1NC(=O)[C@@H]2CCCN2C(=O)C(CC(O)CO)OC(=O)CCNC(=O)[C@H](C)N(C)C(=O)[C@H](C(C)C)N(C)C1=O (some centres undefined) (cyclo([Ile(3ξ)][NMeV][NMeA][βAla][X24]P))", "> 100 µM (inactive)"),
]

So what does the record say about GI50 for `CCN(CC)C(=S)SS(=O)(=O)c1ccc(NC(C)=O)cc1` ?
17.1 µM (inactive)
